Test system: OVCAR-5 ovarian
MEASUREMENT_DESCRIPTION: NCI tumour cell line growth inhibition, 48 h
Each record here notes measured TGI.
EXPERIMENTAL_ENDPOINT: TGI (µM)

COMPOUND: CC(CCC#N)(CCC#N)C(=O)CC(O)(C(F)(F)F)C(F)(F)F
EXPERIMENTAL_ENDPOINT: TGI
VALUE_PREFIX: =
NUMERIC_VALUE: 32.4

COMPOUND: CC(C)(C)[Si](C)(C)OC1/C(=C/C#N)C(n2ccc(=O)[nH]c2=O)OC1CO (stereo not given)
EXPERIMENTAL_ENDPOINT: TGI
VALUE_PREFIX: >
NUMERIC_VALUE: 100

COMPOUND: O=S(=O)(O)c1ccc(N=Nc2ccc(N=Nc3c(O)ccc4ccccc34)cc2)cc1
EXPERIMENTAL_ENDPOINT: TGI
VALUE_PREFIX: >
NUMERIC_VALUE: 100

COMPOUND: O=C(NCCCN(CCCCN(CCCNC(=O)C(F)(F)F)CCCc1ccccc1)CCCc1ccccc1)C(F)(F)F
EXPERIMENTAL_ENDPOINT: TGI
VALUE_PREFIX: =
NUMERIC_VALUE: 25.9

COMPOUND: CCOC(=O)c1csc(NC(=O)CN2CCN(C)CC2)n1
EXPERIMENTAL_ENDPOINT: TGI
VALUE_PREFIX: >
NUMERIC_VALUE: 100

COMPOUND: O=C(O)[C@H](NS(=O)(=O)c1ccc2ccccc2c1)c1ccccc1
EXPERIMENTAL_ENDPOINT: TGI
VALUE_PREFIX: >
NUMERIC_VALUE: 100

COMPOUND: COc1ccc(OC)c(C2Cc3cnc4nc(N)nc(N)c4c3C2)c1 (stereo not given)
EXPERIMENTAL_ENDPOINT: TGI
VALUE_PREFIX: =
NUMERIC_VALUE: 97.1

COMPOUND: O=C1/C(=C/c2ccccc2)NC(=S)N1CN1CCOCC1
EXPERIMENTAL_ENDPOINT: TGI
VALUE_PREFIX: >
NUMERIC_VALUE: 100

COMPOUND: Nc1c(C(=O)Nc2cccc(Br)c2)sc2nc3c(cc12)C(=O)CCC3
EXPERIMENTAL_ENDPOINT: TGI
VALUE_PREFIX: >
NUMERIC_VALUE: 100

COMPOUND: O=c1c2c(-c3ccccc3)onc2n(-c2ccccc2)c(=O)n1-c1ccccc1
EXPERIMENTAL_ENDPOINT: TGI
VALUE_PREFIX: =
NUMERIC_VALUE: 44

Measured values drawn from PubChem BioAssay (NCI) for this set.
